I'd be grateful if you could share measured z-score for these entries.
# assay comment: modulators of S6 phosphorylation in cells, primary screen, cell-based, A549, cytoblot, luminescence, serum-stimulated (AID 1158);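 also: serum-stimulated A549 lung adenocarcinoma cells; signal is phosphorylated S6 detected by cytoblot immunostaining with HRP secondary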
# protocol conditions: A549 phospho-S6 cytoblot, 5 h, higher = more signal
One number for each entry.

[[record]]
compound_smiles = "COc1cccc([C@H]2N[C@H](C(=O)O)CC[C@@H]2C)c1"
result = 3.05

[[record]]
compound_smiles = "COc1cc2c(cc1OC)CN(C(=O)[C@H]1[C@@H]3C(=O)O[C@@H](c4ccccc4)[C@@H](c4ccccc4)N3[C@@H](c3ccc(O)cc3)[C@]13C(=O)Nc1ccc(C#CC4(O)CCCCCC4)cc13)CC2"
result = 0.48

[[record]]
compound_smiles = "C=CCNC(=O)[C@H]1[C@@H]2C(=O)O[C@@H](c3ccccc3)[C@@H](c3ccccc3)N2[C@@H](c2ccc(O)cc2)[C@]12C(=O)Nc1ccc(C#CCNC(N)=O)cc12"
result = 0.583

[[record]]
compound_smiles = "O=C(CS)NCCCCCCNC(=O)[C@@H]1C[C@@H]2C(=O)N[C@@H](Cc3ccccc3)C(=O)N2[C@@H]1c1ccc(O)cc1"
result = -0.113

[[record]]
compound_smiles = "CCN1C(C)=C(C(=O)OC)[C@@H](c2ccccc2)N2C(=O)[C@](O)(C(=O)OC)[C@@H](c3ccccc3)C(C(C)=O)=C12"
result = 3.95


The compound listed as "COCCCNC(=O)[C@@]1(c2ccc([N+](=O)[O-])cc2)CC(=O)N(C2CCCCC2)[C@@H]1c1ccc(CO)cc1" has a reported z-score of -0.203
